Test system: recombinant virus from patient viral RNA (Example 6, drug-naive patient)
assay.explanation: Recombinant virus assay (MT4/MTT), drug-naive patient of Example 6
Type: cell-based, HIV-1
assay.conditions: Table 2, patient mean IC50 / recIIIB IC50, Example 6
Method: RNA was isolated from 100 μl of plasma according to the method described by Boom, R. et al. (1990, supra), and was reverse transcribed with the GeneAmp reverse transcriptase kit (Perkin Elmer) as described by the manufacturer and using an HIV-1 specific downstream primer (OUT3: 5′-CATTGCTCTCCAATTACTGTGATATTTCTCATC-3′; SEQ ID NO: 1). […] During 7 to 10 days following the transfection, cells were monitored for the appearance of cytopathogenic effect (CPE). […]
# reported ratio (1)/(2); entries follow
// no unit string in output, number only

Known results for compounds:
Cc1cn([C@H]2C=C[C@@H](CO)O2)c(=O)[nH]c1=O 1
Nc1ccn([C@@H]2CS[C@H](CO)O2)c(=O)n1 1
O=c1[nH]cnc2c1ncn2[C@H]1CC[C@@H](CO)O1 0.4

Quick one: ratio (1)/(2) for Cc1cn([C@H]2C[C@H](N=[N+]=[N-])[C@@H](CO)O2)c(=O)[nH]c1=O ?
1

Quick one: ratio (1)/(2) for Nc1ccn([C@H]2CC[C@@H](CO)O2)c(=O)n1 ?
1

----------
Tested on: recombinant virus from patient viral RNA (Example 9)
assay.explanation: Recombinant virus assay (MT4/MTT), patient of Example 9 (multiple nucleoside analogue RT-inhibitors)
Type: cell-based, HIV-1
assay.conditions: Table 5, patient mean IC50 / recIIIB IC50, Example 9
Procedure: RNA was isolated from 100 μl of plasma according to the method described by Boom, R. et al. (1990, supra), and was reverse transcribed with the GeneAmp reverse transcriptase kit (Perkin Elmer) as described by the manufacturer and using an HIV-1 specific downstream primer (OUT3: 5′-CATTGCTCTCCAATTACTGTGATATTTCTCATC-3′; SEQ ID NO: 1). […] During 7 to 10 days following the transfection, cells were monitored for the appearance of cytopathogenic effect (CPE). […]
# reported ratio (1)/(2); entries follow
// no unit string in output, number only

compound	observation.type	observed
CC(C)=CCN1Cc2c(Cl)ccc3[nH]c(=S)n(c23)C[C@@H]1C	ratio (1)/(2)	1
CC(=O)c1ccc(C)cc1NC(C(N)=O)c1c(Cl)cccc1Cl (stereo not shown) [loviride]	ratio (1)/(2)	0.9

Quick one: ratio (1)/(2) for Nc1ccn([C@H]2CC[C@@H](CO)O2)c(=O)n1 ?
19

----------
Tested on: recombinant virus from patient viral RNA (Example 5, 3TC resistant HIV strains)
assay.explanation: Recombinant virus assay (MT4/MTT), patient of Example 5 (AZT, then AZT+3TC therapy)
Assay type: cell-based, HIV-1
assay.conditions: Human immunodeficiency virus 1; Table 1, Example 5 patient virus, MT4 cells; read-out: Anti-HIV-1 activity IC50 (μM) Exp. 1
The label is 1.0 for IC50 below 0.1 µM and 0.0 for IC50 equal to or exceeding 0.1 µM.

The following compounds have reported results that may help.
structure.smiles	discrete.label
O=c1[nH]cnc2c1ncn2[C@H]1CC[C@@H](CO)O1	0.0
Nc1ccn([C@H]2CC[C@@H](CO)O2)c(=O)n1	0.0
Cc1cn([C@H]2C[C@H](N=[N+]=[N-])[C@@H](CO)O2)c(=O)[nH]c1=O	1.0
Nc1ccn([C@@H]2CS[C@H](CO)O2)c(=O)n1	0.0

Now for a further compound.
Report whether reported IC50 is lower than 0.1 µM (strictly) for CC(C)=CCN1Cc2c(Cl)ccc3[nH]c(=S)n(c23)C[C@@H]1C
1.0

----------
# reported IC50; entries follow
Test system: recombinant virus from patient viral RNA (Example 6, drug-naive patient)
assay.explanation: Recombinant virus assay (MT4/MTT), drug-naive patient of Example 6
Format: cell-based, HIV-1
assay.conditions: Human immunodeficiency virus 1; Table 2, Example 6 patient virus, MT4 cells; read-out: Anti-HIV-1 activity IC50 (μM) Exp. 1
State the result as a value with its unit after it.

Known results for compounds:
compound	target.of.assay	observed
Cc1cn([C@H]2C=C[C@@H](CO)O2)c(=O)[nH]c1=O [d4T, stavudine]	recombinant virus from patient viral RNA (Example 6, drug-naive patient)	1.31 µM
O=c1[nH]cnc2c1ncn2[C@H]1CC[C@@H](CO)O1 [ddI, didanosinen]	recombinant virus from patient viral RNA (Example 6, drug-naive patient)	3.07 µM
Nc1ccn([C@H]2CC[C@@H](CO)O2)c(=O)n1 [ddC, zalcitabine]	recombinant virus from patient viral RNA (Example 6, drug-naive patient)	1.45 µM

For the record Cc1cn([C@H]2C[C@H](N=[N+]=[N-])[C@@H](CO)O2)c(=O)[nH]c1=O [AZT, zidovudine] , what value of IC50 is listed for recombinant virus from patient viral RNA (Example 6, drug-naive patient)?
0.04 µM

For the record Nc1ccn([C@@H]2CS[C@H](CO)O2)c(=O)n1 [3TC, lamivudine] , what value of IC50 is listed for recombinant virus from patient viral RNA (Example 6, drug-naive patient)?
1.81 µM

----------
# reported log10(IC50); entries follow
Test system: recombinant virus from patient viral RNA (Example 8)
assay.explanation: Recombinant virus assay (MT4/MTT), patient of Example 8 (therapy history AZT, 3TC and loviride)
Format: cell-based, HIV-1
assay.conditions: Human immunodeficiency virus 1; Table 4, Example 8 patient virus, mean; read-out: Anti-HIV-1 activity IC50 (μM) Mean (1)
All values: log10 IC50 [µM].

Known results for molecules:
molecule	target.of.assay	observed
CC(C)=CCN1Cc2c(Cl)ccc3[nH]c(=S)n(c23)C[C@@H]1C [tivirapine]	recombinant virus from patient viral RNA (Example 8)	0.21
O=c1[nH]cnc2c1ncn2[C@H]1CC[C@@H](CO)O1 [ddI, didanosinen]	recombinant virus from patient viral RNA (Example 8)	1.32
Cc1cn([C@H]2C=C[C@@H](CO)O2)c(=O)[nH]c1=O [d4T, stavudine]	recombinant virus from patient viral RNA (Example 8)	0.86

Quick one: log10(IC50) for Nc1ccn([C@H]2CC[C@@H](CO)O2)c(=O)n1 [ddC, zalcitabine] ?
0.95

Quick one: log10(IC50) for Cc1cn([C@H]2C[C@H](N=[N+]=[N-])[C@@H](CO)O2)c(=O)[nH]c1=O [AZT, zidovudine] ?
1.31

----------
Test system: Recombinant wild type HIV strain recIIIB
assay.explanation: Antiviral MT4/MTT assay with reference virus recIIIB
Type: cell-based, HIV-1
assay.conditions: Human immunodeficiency virus 1, Table 2, reference run of Example 6; read-out: Anti-HIV-1 activity IC50 (μM) recIIIB ref (2)
# reported log10 IC50; entries follow
All values: log10 IC50 [µM].

Cc1cn([C@H]2C[C@H](N=[N+]=[N-])[C@@H](CO)O2)c(=O)[nH]c1=O -1.22
O=c1[nH]cnc2c1ncn2[C@H]1CC[C@@H](CO)O1 0.93
Cc1cn([C@H]2C=C[C@@H](CO)O2)c(=O)[nH]c1=O 0.24
Nc1ccn([C@H]2CC[C@@H](CO)O2)c(=O)n1 0.34

Read the next record carefully.
Quick one: log10 IC50 for Nc1ccn([C@@H]2CS[C@H](CO)O2)c(=O)n1 ?
0.49

----------
Tested on: Recombinant wild type HIV strain recIIIB
assay.explanation: Antiviral MT4/MTT assay with reference virus recIIIB
Assay type: cell-based, HIV-1
assay.conditions: Human immunodeficiency virus 1, Table 3, reference run of Example 7; read-out: Anti-HIV-1 activity IC50 (μM) recIIIB ref (2)
The label is y for IC50 below 1 µM and n for IC50 equal to or exceeding 1 µM.

The following molecules have reported results that may help.
molecule	discrete.label
CC(=O)c1ccc(C)cc1NC(C(N)=O)c1c(Cl)cccc1Cl (stereo not shown) [loviride]	y
CC(C)=CCN1Cc2c(Cl)ccc3[nH]c(=S)n(c23)C[C@@H]1C	y
O=c1[nH]cnc2c1ncn2[C@H]1CC[C@@H](CO)O1	y
Cc1cn([C@H]2C[C@H](N=[N+]=[N-])[C@@H](CO)O2)c(=O)[nH]c1=O	y
Cc1cn([C@H]2C=C[C@@H](CO)O2)c(=O)[nH]c1=O	n
Nc1ccn([C@H]2CC[C@@H](CO)O2)c(=O)n1	n

Now for a further molecule.
Report whether reported IC50 is lower than 1 µM (strictly) for Nc1ccn([C@@H]2CS[C@H](CO)O2)c(=O)n1
n

----------
Tested on: recombinant virus from patient viral RNA (Example 11)
assay.explanation: Recombinant virus assay (MT4/MTT), patient of Example 11 (therapy history RT and protease inhibitors)
Assay type: cell-based, HIV-1
assay.conditions: Human immunodeficiency virus 1; Table 7, Example 11 patient virus, MT4 cells; read-out: Anti-HIV-1 activity IC50 (μM) Exp. 2
# reported IC50; entries follow
Reply numerically in µM, unit not repeated.

Known results for compounds:
compound	target.of.assay	IC50 / µM
Cc1cn([C@H]2C[C@H](N=[N+]=[N-])[C@@H](CO)O2)c(=O)[nH]c1=O [AZT, zidovudine]	recombinant virus from patient viral RNA (Example 11)	0.015
CC(C)(C)NC(=O)[C@@H]1CN(Cc2cccnc2)CCN1C[C@@H](O)C[C@@H](Cc1ccccc1)C(=O)N[C@H]1c2ccccc2C[C@H]1O [indinavir]	recombinant virus from patient viral RNA (Example 11)	0.416
CC(C)(C)NC(=O)[C@@H]1C[C@@H]2CCCC[C@@H]2CN1C[C@@H](O)[C@H](Cc1ccccc1)NC(=O)[C@H](CC(N)=O)NC(=O)c1ccc2ccccc2n1 [saquinavir]	recombinant virus from patient viral RNA (Example 11)	0.015

Read the next record carefully.
Quick one: IC50 for CC(C)c1nc(CN(C)C(=O)N[C@H](C(=O)N[C@@H](Cc2ccccc2)C[C@H](O)[C@H](Cc2ccccc2)NC(=O)OCc2cncs2)C(C)C)cs1 [ritonavir] ?
1.74
